# Protocol notes: Cytotoxicity (CC50) in HeLa cells
# Run parameters: human
Measured property: CC50

Per the records, this molecule ( COc1ccc([C@H]2c3[nH]c4ccc(Cl)cc4c3CCN2C(=O)Oc2ccc(Cl)cc2)cc1 (racemic) ) has CC50 equal to > 1000 nM

###

# Protocol notes: in vitro
# Run parameters: African green monkey
Measured property: CC50

Reported CC50 for COc1ccc([C@H]2c3[nH]c4ccc(Cl)cc4c3CCN2C(=O)Oc2ccc(Cl)cc2)cc1 (racemic) was > 1 µM

###

# Tested on: HSV-1
# Protocol notes: HSV-1 CPE protection assay in Vero cells
# Assay type: cell-based, herpes simplex virus-1
# Run parameters: Human alphaherpesvirus 1, HSV-1, DNA
Measured property: IC50

For COc1ccc([C@H]2c3[nH]c4ccc(Cl)cc4c3CCN2C(=O)Oc2ccc(Cl)cc2)cc1 (racemic) the compound record lists IC50 as > 1000 nM
